Answer each item with its documented pIC50.
Molecular target: HMG-CoA synthase (Rattus norvegicus)
Construct: The livers from male Charles River CD rats (225-350 g) were homogenized; from tissue; host or cells: rat liver (male Charles River CD rats), 100,000 x g supernatant, ammonium sulfate and DEAE-52 fraction
Sequence (P17425 whole entry): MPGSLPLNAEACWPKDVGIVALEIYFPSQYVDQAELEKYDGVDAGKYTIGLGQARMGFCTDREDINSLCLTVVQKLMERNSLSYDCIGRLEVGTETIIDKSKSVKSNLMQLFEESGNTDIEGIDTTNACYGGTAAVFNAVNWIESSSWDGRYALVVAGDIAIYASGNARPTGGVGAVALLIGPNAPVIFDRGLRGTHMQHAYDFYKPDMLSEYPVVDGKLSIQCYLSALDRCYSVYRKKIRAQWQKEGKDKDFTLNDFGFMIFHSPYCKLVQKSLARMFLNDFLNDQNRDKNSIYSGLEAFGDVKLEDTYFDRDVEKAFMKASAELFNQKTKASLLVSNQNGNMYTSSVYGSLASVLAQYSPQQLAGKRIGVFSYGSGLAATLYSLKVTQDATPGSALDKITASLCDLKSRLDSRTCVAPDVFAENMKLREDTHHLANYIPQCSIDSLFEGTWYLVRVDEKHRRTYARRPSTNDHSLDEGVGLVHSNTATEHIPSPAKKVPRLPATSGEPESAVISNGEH
Experiment: HMG-CoA Synthase Inhibition Assay
Type: biochemical
Settings: Table I; rat liver enzyme, 1-[14C]-acetyl-CoA incorporation
Protocol: The intrinisic HMG-CoA synthase inhibition activity of the compounds of this invention is measured by the standard in vitro protocol described below: […] Enzyme protein (ca. 24 mg) was added to a solution containing […] Tris-HCl (pH 8.0), 11.7 μM MgCl2, 1.17 μM ethylenediaminetetraacetic acid (EDTA), 0.58 μM dithiothreitol, and the indicated concentrations of the test compound (added as a 2 mg/ml solution in dimethylsulfoxide). […] Percent inhibition is calculated by the formula: [formula] […]
Give bare numbers, as −log10 of the molar value.

Before answering, review these 3 worked examples.
compound: C=CCOc1c(OC)cc(C(=O)OC[C@@H]2[C@H](CC)C(=O)N2S(=O)(=O)c2ccc(C)cc2)cc1[N+](=O)[O-] (relative stereo)
pIC50: 6.80

compound: CCC[C@@H]1C(=O)N(S(=O)(=O)c2ccc(C)cc2)[C@@H]1COC(=O)c1ccc(OC)cc1 (relative stereo)
pIC50: 7.16

compound: CC[C@@H]1C(=O)N(S(=O)(=O)c2ccc(C)cc2)[C@@H]1COC(=O)c1cccc(NC(C)=O)c1 (relative stereo)
pIC50: 7.14

# context switch: different compound, same pIC50
Query: Find pIC50 (HMG-CoA synthase (Rattus norvegicus)) for the entry COc1ccc(C(=O)OC[C@@H]2[C@H](C(C)C)C(=O)N2S(=O)(=O)c2ccc(C)cc2)cc1 (relative stereo)
Result: 6.89
